From: the NIST ThermoML archive (doi:10.1021/acs.jced.6b00178)

# Lookup of reported mass density keyed by entry
- assay-procedure: xn = mol fraction of the nth substance listed
- condition-label: 298.15 K; 100 kPa; Liquid; Vibrating tube method; x2 = 0.25
The reply should be a number in kg/m3, with the unit left off.

CCCCn1cc[n+](C)c1.F[P-](F)(F)(F)(F)F [1-butyl-3-methylimidazolium hexafluorophosphate] + CCCC[n+]1ccn(C)c1.O=S(=O)([N-]S(=O)(=O)C(F)(F)F)C(F)(F)F: 1389.4
CCCCn1cc[n+](C)c1.COP(=O)([O-])OC [1-butyl-3-methyl-1H-imidazolium dimethylphosphate] + CCCC[n+]1ccn(C)c1.O=S(=O)([N-]S(=O)(=O)C(F)(F)F)C(F)(F)F: 1239.1
CCCCn1cc[n+](C)c1.N#C[S-] [1-butyl-3-methylimidazolium thiocyanate] + CCCC[n+]1ccn(C)c1.O=S(=O)([N-]S(=O)(=O)C(F)(F)F)C(F)(F)F: 1195.4
CCCCn1cc[n+](C)c1.O=S(=O)([O-])C(F)(F)F [1-butyl-3-methylimidazolium trifluoromethanesulfonate] + CCCC[n+]1ccn(C)c1.O=S(=O)([N-]S(=O)(=O)C(F)(F)F)C(F)(F)F: 1339.8

From here, focus on the item given below.
If you can, please state the reported mass density value of CC(=O)[O-].CCCCn1cc[n+](C)c1 [1-butyl-3-methylimidazolium acetate] + CCCC[n+]1ccn(C)c1.O=S(=O)([N-]S(=O)(=O)C(F)(F)F)C(F)(F)F .
1181.9
